Just for reference, a melting point compilation (Tetko et al.; mined from patent text by program, amines drawn as free bases though some values may be those of a salt) is where these values come from.

This listing pairs compounds with measured melting point.

[
  {
    "compound": "Cc1cc(-n2c(=O)[nH]c3ccccc32)cc2c1NC(=O)CC2C (centres undefined)",
    "readout.kind": "melting point",
    "recorded.result": "250 to 254 °C"
  },
  {
    "compound": "O=[N+]([O-])c1ccc2c(c1-c1n[nH]cc1Cl)OC(F)(F)O2",
    "readout.kind": "melting point",
    "recorded.result": "180 °C"
  },
  {
    "compound": "Cc1cc(OCc2ccccc2)cc(OCc2cccc(OCc3ccc4ccccc4n3)c2)c1C(=O)O",
    "readout.kind": "melting point",
    "recorded.result": "146 to 149 °C"
  },
  {
    "compound": "Cc1ccc(-c2cc(NC(=O)C3Cc4ccccc4C3)n[nH]2)cc1",
    "readout.kind": "melting point",
    "recorded.result": "220 to 225 °C"
  },
  {
    "compound": "CN(C)CCOc1ccc(Nc2ncc3c(n2)N(C)C(=O)N(c2c(Cl)cccc2Cl)C3)cc1",
    "readout.kind": "melting point",
    "recorded.result": "173 to 174 °C"
  },
  {
    "compound": "O=S1NC(Cc2coc3ccccc23)=NO1 (centres undefined)",
    "readout.kind": "melting point",
    "recorded.result": "138 to 140 °C"
  },
  {
    "compound": "CCn1cc(C(=O)O)c(=O)c2cc(F)c(N3C[C@@H](N)[C@@H]3C)cc21 (relative stereo)",
    "readout.kind": "melting point",
    "recorded.result": "232 to 235 °C"
  },
  {
    "compound": "COC(=O)Cc1ccc(OCCNC(=O)C2Cc3ccccc3N2S(=O)(=O)c2ccc(-c3cc(C(F)(F)F)ccc3F)cc2)cc1 (centres undefined)",
    "readout.kind": "melting point",
    "recorded.result": "52 to 55 °C"
  }
]

**Q:** Requested field: melting point. Item: `Cc1nc(-c2ccc(C(=O)O)s2)no1`
**A:** 218 to 220 °C

---

readout.kind: melting point

[
  {
    "molecule": "CCCCCC(=O)c1c(Cn2cncn2)nc2cc(OC)c(OC)cc2c1-c1ccc(OC)c(OC)c1",
    "readout.kind": "melting point",
    "recorded.result": "151 to 152 °C"
  },
  {
    "molecule": "CCOC(=O)C(=NOC1CCCCO1)c1csc(NC(c2ccccc2)(c2ccccc2)c2ccccc2)n1 (centres undefined)",
    "readout.kind": "melting point",
    "recorded.result": "184 °C"
  },
  {
    "molecule": "O=C(O)c1ccc(COCc2csc3nc(C(=O)NCc4cccc(F)c4)[nH]c(=O)c23)cc1",
    "readout.kind": "melting point",
    "recorded.result": "256 to 280 °C"
  },
  {
    "molecule": "Cc1oc(-c2ccccc2)nc1CCOc1ccc(CCCCCC2OC(=O)NC2=O)cc1 (centres undefined)",
    "readout.kind": "melting point",
    "recorded.result": "157 to 158 °C"
  },
  {
    "molecule": "Cc1ccc(S(=O)(=O)CNCC(CS(=O)(=O)c2ccccc2Oc2ccc(OC(F)(F)F)cc2)N(O)C=O)cc1 (centres undefined)",
    "readout.kind": "melting point",
    "recorded.result": "161 to 162 °C"
  }
]

**Q:** For `Cc1[nH]c2ncnc(N3CCCc4ccccc43)c2c1C` , what is its reported melting point?
**A:** 263 to 264 °C

**Q:** Another: O=S(=O)(c1ccc(Nc2nccc(Nc3ccc(F)cc3)n2)cc1)N1CCC(C(O)c2ccncc2F)CC1 (centres undefined)
**A:** 140 °C

**Q:** Now try `O=C(O)COc1ccc(SCc2ccc(-c3ccc(C(F)(F)F)cc3)cc2)c2c1CCCO2` .
**A:** 122 to 124 °C

**Q:** And then CNC(=O)C(C)NC(=O)OC(C)(C)C (centres undefined) , what is it?
**A:** 117 to 118 °C
